# Percent inhibition SINAR per entry
tested on: SINAR (wild mustard); test: Pre-plant incorporated (PPI) herbicidal activity, cool season; type: in vivo, Sinapis arvensis; conditions: weed, PPI application, 10 g/ha

The examples below pair each entry with its known result.
compound	target.desc	Percent inhibition SINAR
CCN(CC)C(=O)n1cnc(S(=O)(=O)C(F)(F)SCc2ccccc2)n1 [Example 10]	SINAR (wild mustard)	0%
C=C(CC(F)(F)S(=O)(=O)c1ncn(C(=O)N(CC)CC)n1)C[Si](C)(C)C [Example 20]	SINAR (wild mustard)	30%
CCN(CC)C(=O)n1cnc(S(=O)(=O)C(F)(F)SCC(=O)OC)n1 [Example 11]	SINAR (wild mustard)	0%
CCN(CC)C(=O)n1cnc(S(=O)(=O)C(F)(F)C(F)F)n1 [Example 16]	SINAR (wild mustard)	0%

Continue with the next compound.
Briefly, Percent inhibition SINAR measured for CCN(CC)C(=O)n1cnc(S(=O)(=O)C(F)(F)SCCOC)n1 [Example 13] : 70%

----------
system: STEME (common chickweed); assay: Pre-plant incorporated (PPI) herbicidal activity, cool season; assay type: in vivo, Stellaria media; settings: weed, PPI application, 100 g/ha
observation.type: Percent inhibition STEME
Include the unit right after the number.

Consider CCN(CC)C(=O)n1cnc(S(=O)(=O)C(F)(F)SC)n1 . Its measured Percent inhibition STEME is 95%

Sure, the documented Percent inhibition STEME for CCN(CC)C(=O)n1cnc(S(=O)(=O)C(F)(F)SCC(=O)OC)n1 is 0%

Query CCN(CC)C(=O)n1cnc(S(=O)(=O)C(F)(F)C(F)(F)Br)n1 yields Percent inhibition STEME of 60%

The measured Percent inhibition STEME associated with CCN(CC)C(=O)n1cnc(S(=O)(=O)C(F)(F)C(F)F)n1 reads 60%

Record summary for CCN(CC)C(=O)n1cnc(S(=O)(=O)C(F)(F)SCCOC)n1 : reported Percent inhibition STEME = 20%

----------
test system: AGRRE (quackgrass (seedling)); test: Pre-plant incorporated (PPI) herbicidal activity, cool season; assay type: in vivo, Elymus repens; conditions: weed, PPI application, 300 g/ha
observation.type: Percent inhibition AGRRE (%)
Output spec: scalar in %, unitless text.

CCN(CC)C(=O)n1cnc(S(=O)(=O)C(F)(F)SCc2ccccc2)n1 0
CCN(CC)C(=O)n1cnc(S(=O)(=O)C(F)(F)Cl)n1 80
CCN(CC)C(=O)n1cnc(S(=O)(=O)C(F)(F)SCC(=O)OC)n1 0
CCN(CC)C(=O)n1cnc(S(=O)(=O)C(F)(F)SCCOC)n1 40
CCN(CC)C(=O)n1cnc(S(=O)(=O)C(F)(F)C(F)F)n1 20

# context switch: different compound, same Percent inhibition AGRRE
Lab note: CCN(CC)C(=O)n1cnc(S(=O)(=O)C(F)(F)C(F)(F)Br)n1 gave Percent inhibition AGRRE of 80

----------
test system: DATST (jimsonweed); test: Pre-plant incorporated (PPI) herbicidal activity, warm season; type: in vivo, Datura stramonium; settings: PPI application, 100 g/ha
A collection of compounds and their measured Percent inhibition DATST

Noted for CCN(CC)C(=O)n1cnc(S(=O)(=O)C(F)(F)SCC(=O)OC)n1 : its Percent inhibition DATST reads 20%

Memo: CCN(CC)C(=O)n1cnc(S(=O)(=O)C(F)(F)C(F)F)n1 , reported Percent inhibition DATST: 20%

Measured Percent inhibition DATST, CCN(CC)C(=O)n1cnc(S(=O)(=O)C(F)(F)SC)n1 : 0%

Percent inhibition DATST measured on CCN(CC)C(=O)n1cnc(S(=O)(=O)C(F)(F)F)n1 = 10%

Looking up C=C(CC(F)(F)S(=O)(=O)c1ncn(C(=O)N(CC)CC)n1)C[Si](C)(C)C , I found its Percent inhibition DATST recorded as 0%

----------
The following molecules are shown together with reported PPI activity GR80, DIGSA values.
tested on: DIGSA (large crabgrass); assay: Pre-plant incorporated (PPI) herbicidal activity, warm season; format: in vivo, Digitaria sanguinalis; conditions: pre-plant incorporated; lowest tested rate with 80% or greater inhibition; about 14 days
# value in g/ha; strip the unit string

CCN(CC)C(=O)n1cnc(S(=O)(=O)C(F)(F)C(F)F)n1 10
C=C(Br)CC(F)(F)S(=O)(=O)c1ncn(C(=O)N(CC)CC)n1 30
C=C(CC(F)(F)S(=O)(=O)c1ncn(C(=O)N(CC)CC)n1)C[Si](C)(C)C 100
CCN(CC)C(=O)n1cnc(S(=O)(=O)C(F)(F)Br)n1 100
C=CCC(F)(F)S(=O)(=O)c1ncn(C(=O)N(CC)CC)n1 30

Now consider the entry below.
Briefly, PPI activity GR80, DIGSA measured for CCN(CC)C(=O)n1cnc(S(=O)(=O)C(F)(F)SCC(=O)OC)n1 : 300

----------
system: SETVI (green foxtail); experiment: Pre-plant incorporated (PPI) herbicidal activity, cool season; type: in vivo, Setaria viridis; settings: Setaria viridis; weed, PPI application, 30 g/ha; read-out: Percent inhibition SETVI
# key: entry, value: inhibition at 30 g/ha
Please report the result as a number followed by the unit.

Some solved cases for reference:
CCN(CC)C(=O)n1cnc(S(=O)(=O)C(F)(F)Br)n1 80%
CCSC(F)(F)S(=O)(=O)c1ncn(C(=O)N(CC)CC)n1 100%
C=C(C)CC(F)(F)S(=O)(=O)c1ncn(C(=O)N(CC)CC)n1 100%
C=C(Br)CC(F)(F)S(=O)(=O)c1ncn(C(=O)N(CC)CC)n1 60%

Just so you know, measured inhibition at 30 g/ha for C=CCC(F)(F)S(=O)(=O)c1ncn(C(=O)N(CC)CC)n1 came out at 70%

----------
# Percent inhibition PANDI annotations
test system: PANDI (fall panicum); assay: Pre-plant incorporated (PPI) herbicidal activity, warm season; assay type: in vivo, Panicum dichotomiflorum; settings: PPI application, 10 g/ha
Kindly provide the numeric value in % only, without the unit symbol.

The cases that follow already have their Percent inhibition PANDI on record.
molecule	target.desc	observation.type	readout.value
CCN(CC)C(=O)n1cnc(S(=O)(=O)C(F)(F)C(F)F)n1 [Example 16]	PANDI (fall panicum)	Percent inhibition PANDI	0
CCN(CC)C(=O)n1cnc(S(=O)(=O)C(F)(F)SCC(=O)OC)n1 [Example 11]	PANDI (fall panicum)	Percent inhibition PANDI	0
CCN(CC)C(=O)n1cnc(S(=O)(=O)C(F)(F)SCCOC)n1 [Example 13]	PANDI (fall panicum)	Percent inhibition PANDI	40

Entry CCN(CC)C(=O)n1cnc(S(=O)(=O)C(F)(F)SCc2ccccc2)n1 [Example 10] , tested on PANDI (fall panicum), has a reported Percent inhibition PANDI of 0

----------
system: SETFA (giant foxtail); assay: Pre-plant incorporated (PPI) herbicidal activity, warm season; assay type: in vivo, Setaria faberi; details: PPI application, 300 g/ha
Examples of compounds with documented Percent inhibition SETFA follow.
Value expressed in %; do not type the unit.

compound	Percent inhibition SETFA [%]
CCN(CC)C(=O)n1cnc(S(=O)(=O)C(F)(F)SCCOC)n1 [Example 13]	100
C=C(CC(F)(F)S(=O)(=O)c1ncn(C(=O)N(CC)CC)n1)C[Si](C)(C)C [Example 20]	90
CCN(CC)C(=O)n1cnc(S(=O)(=O)C(F)(F)C(F)F)n1 [Example 16]	100

Lab note: CCN(CC)C(=O)n1cnc(S(=O)(=O)C(F)(F)Cl)n1 [Example 3] gave Percent inhibition SETFA of 100

----------
tested on: GALAP (catchweed bedstraw); assay: Pre-plant incorporated (PPI) herbicidal activity, cool season; format: in vivo, Galium aparine; settings: pre-plant incorporated; lowest tested rate with 80% or greater inhibition; about 14 days
# PPI activity GR80, GALAP annotations
Give just the number in g/ha; leave the unit off.

Example cases with answers are listed next.
CCN(CC)C(=O)n1cnc(S(=O)(=O)C(F)(F)C(F)F)n1 100
CCN(CC)C(=O)n1cnc(S(=O)(=O)C(F)F)n1 30
C=C(Br)CC(F)(F)S(=O)(=O)c1ncn(C(=O)N(CC)CC)n1 100
CCN(CC)C(=O)n1cnc(S(=O)(=O)C(F)(F)SCCOC)n1 300
CCN(CC)C(=O)n1cnc(S(=O)(=O)C(F)(F)SCC(=O)OC)n1 300
C=C(C)CC(F)(F)S(=O)(=O)c1ncn(C(=O)N(CC)CC)n1 100

Per the record, CCN(CC)C(=O)n1cnc(S(=O)(=O)C(F)(F)C(=O)c2ccccc2)n1 has PPI activity GR80, GALAP of 100

PPI activity GR80, GALAP recorded for this compound, CCN(CC)C(=O)n1cnc(S(=O)(=O)C(F)(F)Br)n1 , is 100

The recorded PPI activity GR80, GALAP for entry CCSC(F)(F)S(=O)(=O)c1ncn(C(=O)N(CC)CC)n1 equals 100

Query C=CCC(F)(F)S(=O)(=O)c1ncn(C(=O)N(CC)CC)n1 yields PPI activity GR80, GALAP of 100
